Biological target: 348 GPCRs (Homo sapiens, UniProt P29274)
Construct: expressed in transfected cells; host or cells: HEK293A
Sequence (P29274 whole entry): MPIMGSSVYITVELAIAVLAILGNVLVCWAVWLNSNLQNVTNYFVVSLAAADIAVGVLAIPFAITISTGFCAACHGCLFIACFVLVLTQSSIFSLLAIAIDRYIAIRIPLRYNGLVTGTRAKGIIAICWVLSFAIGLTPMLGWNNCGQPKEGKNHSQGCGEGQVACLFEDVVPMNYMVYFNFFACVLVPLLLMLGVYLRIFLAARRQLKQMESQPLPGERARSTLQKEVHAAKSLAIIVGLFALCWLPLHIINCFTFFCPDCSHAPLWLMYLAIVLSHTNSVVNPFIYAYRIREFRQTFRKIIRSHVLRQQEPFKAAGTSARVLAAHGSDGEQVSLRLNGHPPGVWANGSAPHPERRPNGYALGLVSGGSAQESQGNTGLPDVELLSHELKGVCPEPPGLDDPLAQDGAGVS
Test: TGFα-shedding assay-based GPCR screening with chimeric Gα subunit proteins
Format: cell-based
Conditions: ADORA2A (adenosine A2a receptor); 10µM, Favipiravir 100μM
measured.quantity: % GPCR activation compared to TPA (%)
One number for each entry, in %.

Some entries whose results are on file:
INSERT INTO measurements (molecule, measurement_target, measured_quantity, reported_measurement) VALUES
  ('CC(C)OC(=O)[C@H](C)N[P@](=O)(OC[C@H]1O[C@@H](n2ccc(=O)[nH]c2=O)[C@](C)(F)[C@@H]1O)Oc1ccccc1', '348 GPCRs (Homo sapiens, UniProt P29274)', '% GPCR activation compared to TPA', -2.149),
  ('CC(C)C(=O)OC[C@H]1O[C@@H](n2ccc(NO)nc2=O)[C@H](O)[C@@H]1O', '348 GPCRs (Homo sapiens, UniProt P29274)', '% GPCR activation compared to TPA', -1.952),
  ('N#C[C@@]1(c2ccc3c(N)ncnn23)O[C@H](CO)[C@@H](O)[C@H]1O', '348 GPCRs (Homo sapiens, UniProt P29274)', '% GPCR activation compared to TPA', 1.631);

I'm hoping you can list % GPCR activation compared to TPA for every molecule here, please.
1. CCC(CC)COC(=O)[C@H](C)N[P@](=O)(OC[C@H]1O[C@@](C#N)(c2ccc3c(N)ncnn23)[C@H](O)[C@@H]1O)Oc1ccccc1
2. NC(=O)c1nc(F)cnc1O [favipiravir, 6-fluoro-3-hydroxy-2-pyrazinecarboxamide]

Output line:
1: 3.955; 2: 2.3424
